# Tested on: NIK
# Construct: gene MAP3K14
# protocol_conditions: concentration: 1 μM, replicates: in singlicate; n = 1;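 also: KINOMEscan kinase panel screen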
measured_metric: %Inh (%)
Provide only the numeric value, understood in %.

structure_notation	%Inh / %
Clc1cccc(-c2nc(Nc3ccncc3)c3ccccc3n2)c1	0
O=C(Nc1n[nH]c2nc(-c3ccco3)c(Br)cc12)c1ccc(CN2CCCC2)cc1.O=C(O)[C@H](O)[C@@H](O)C(=O)O	0
c1ccc(-c2ccc3c(-c4ccnc(Nc5ccc6c(c5)OCCO6)n4)cnn3n2)cc1	10

Give %Inh (NIK) of the following compound: Cl.Fc1ccccc1COc1ccc(Nc2ncnc3ccc(-c4nnc(C(F)(F)F)o4)cc23)cc1Cl 10

* * *

%Inh by entry:
# Test system: EPHA8
# protocol_conditions: concentration: 1 μM, replicates: in singlicate; n = 1
Provide only the numeric value, understood in %.

structure_notation	system_under_test	measured_metric	test_value
CC(C)(C)c1ccc(-n2cnc3c(N)ncnc32)cc1	EPHA8	%Inh	16
Fc1cccc(COc2ccc(Nc3ncnc4cc[nH]c34)cc2Cl)c1	EPHA8	%Inh	1
Nc1n[nH]c2nnc(-c3ccccc3)cc12	EPHA8	%Inh	15
Cl.Fc1ccccc1COc1ccc(Nc2ncnc3ccc(-c4nnc(C(F)(F)F)o4)cc23)cc1Cl	EPHA8	%Inh	0

Turning now to a further compound:
Look up %Inh for this compound: CS(=O)(=O)CCNCc1ccc(-c2ccc3ncnc(Nc4ccc(OCc5ccccc5)c(Cl)c4)c3c2)o1.Cl 8

* * *

# Tested on: TYRO3
# protocol_conditions: concentration: 1 μM, replicates: in singlicate; n = 1
%Inh by entry:
Provide only the numeric value, understood in %.

molecule	measured_metric	test_value
Fc1cccc(COc2ccc(Nc3ncnc4cc[nH]c34)cc2Cl)c1	%Inh	19
CC(C)(C)c1ccc(-n2cnc3c(N)ncnc32)cc1	%Inh	0
Cl.O=S(=O)(c1cccc(F)c1)c1ccc(Nc2ncnc3cc(Br)sc23)cc1Cl	%Inh	0
Fc1cccc(COc2ccc(Nc3ncnc4sc(-c5ccc[nH]5)cc34)cc2Cl)c1	%Inh	0
Clc1cccc(-c2nc(Nc3ccncc3)c3ccccc3n2)c1	%Inh	58

Turning now to a further molecule:
Look up %Inh for this molecule: COc1ccc(-c2oc3ncnc(N)c3c2-c2ccc(OC)cc2)cc1 0

* * *

# Tested on: EPHA4
# protocol_conditions: concentration: 1 μM, replicates: in singlicate; n = 1
measured_metric: %Inh (%)
Provide only the numeric value, understood in %.

structure_notation	%Inh, %
CS(=O)(=O)CCNCc1nc(-c2ccc3ncnc(Nc4ccc(OCc5cccc(F)c5)c(Cl)c4)c3c2)cs1.Cl	0
O=c1cc(N2CCOCC2)nc2n(Cc3cccc(Cl)c3)ccn12	20
COc1ccc(NC(=O)Nc2ccc(C)c(-c3ccc(C(=O)Nc4ccncc4)cc3)c2)cc1	1
O=C(c1ccc(-c2cc(-c3c[nH]nc3-c3ccccn3)ccn2)cc1)N1CCCC1	13
CCn1c(-c2ccncc2)nc2cnccc21	10
CC(C)(C)c1ccc(-n2cnc3c(N)ncnc32)cc1	27
Cl.Cl.c1ccc(-c2cc3ccncc3cc2OC2CCNCC2)cc1	9
O=C(Nc1ccccc1)Nc1ccc(Oc2ccc3nccn3n2)cc1	0

Look up %Inh for this compound: Cc1ccc(O)cc1Nc1cc(C(F)(F)F)nc2ccc(-c3ccncc3)cc12 5

* * *

# Tested on: KIT-autoinhibited
# protocol_conditions: concentration: 1 μM, replicates: in singlicate; n = 1
%Inh by entry:

// worked examples, %Inh included
structure_notation	%Inh
Cl.O=S(=O)(c1cccc(F)c1)c1ccc(Nc2ncnc3cc(Br)sc23)cc1Cl	0%
COc1cc2ncnc(Nc3ccc(OCc4ccccc4Br)c(Cl)c3)c2cc1OC.Cl	0%
Cc1ccc(C)c(NC(=O)NCCNc2ccnc(Nc3ccc(F)cc3)n2)c1	0%

Turning now to a further molecule:
Look up %Inh for this molecule: Clc1cc(Nc2ncnc3cc[nH]c23)ccc1OCc1ccccn1 11%
